These entries and their values trace back to paper PMC5344518.

- TESTED_ON: Recombinant cruzain (Trypanosoma cruzi)
- Construct: consisting of the catalytic domain of cruzipain but excluding the carboxy-terminal extension
- Sequence (P25779 123-337 limits assumed): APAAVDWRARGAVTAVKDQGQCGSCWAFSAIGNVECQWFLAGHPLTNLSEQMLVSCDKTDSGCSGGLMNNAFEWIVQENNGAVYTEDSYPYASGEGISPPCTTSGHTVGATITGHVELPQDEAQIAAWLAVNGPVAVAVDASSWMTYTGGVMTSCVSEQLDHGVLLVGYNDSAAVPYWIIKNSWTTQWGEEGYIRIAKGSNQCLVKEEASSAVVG
- PROTOCOL: Enzyme kinetic assay for cruzain (Z-FR-AMC hydrolysis)
- EXPERIMENTAL_CONTEXT: pKi = -log10(Ki/M); uncertainty in parentheses; 37°C, pH 5.5
pKi values by entry
Please note pKi is a logarithmic value: minus log10 of concentration in mol/L. Answer with that number alone.

Sample answers from the record:
Cc1nn(C)c2cc(N3CCN(C(=O)[C@@H]4CCCC[C@H]4C(=O)NC4(C#N)CC4)[C@H](C)C3)ccc12: 5.50
COc1ccc(N2CCN(C(=O)[C@@H]3CCCC[C@H]3C(=O)NC3(C#N)CC3)[C@H](C)C2)cc1OC: 5.90
COc1cc(N2CCN(C(=O)[C@@H]3CCCC[C@H]3C(=O)NC3(C#N)CC3)[C@H](C)C2)ccc1C1CC1: 5.60

Problem: Sample N#CCNC(=O)[C@@H]1CCCC[C@H]1C(=O)N1CCCCC1 — what was its pKi?
Result: 5.10

----------
- TESTED_ON: UniProt P07711
RECORDED_METRIC: Ki

N#CC1(NC(=O)[C@H](Cc2ccccc2)N[C@H](c2ccccc2)C(F)(F)F)CC1: 0.794 µM

Problem: Form entry - test system: UniProt P07711; read-out: Ki; molecule: CC(C)(F)C[C@H](N[C@@H](c1ccc(-c2ccc(S(C)(=O)=O)cc2)cc1)C(F)(F)F)C(=O)NC1(C#N)CC1
Result: 6.31 µM

----------
- Test system: amastigote forms of T. cruzi CL Brener strain
- PROTOCOL: Anti-trypanosomal activity assay (beta-galactosidase reporter, infected LLC-MK2 cells)
- Format: cell-based
- EXPERIMENTAL_CONTEXT: Trypanosoma cruzi, LLC-MK2; T. cruzi CL Brener strain; read-out: EC50 (anti-trypanosomal activity)
RECORDED_METRIC: EC50
Entry format: amount then unit.

Problem: Sample N#CC1(NC(=O)[C@H](Cc2ccccc2)N[C@H](c2ccccc2)C(F)(F)F)CC1 [Compound 5] — what was its EC50?
Result: 120 nM

Problem: Sample COc1cc(N2CCN(C(=O)[C@@H]3CCCC[C@H]3C(=O)NC3(C#N)CC3)[C@H](C)C2)ccc1C1CC1 [Compound 11] — what was its EC50?
Result: 250 nM

Problem: Sample Cc1nn(C)c2cc(N3CCN(C(=O)[C@@H]4CCCC[C@H]4C(=O)NC4(C#N)CC4)[C@H](C)C3)ccc12 [Compound 12] — what was its EC50?
Result: 1300 nM

----------
inhibition at 0.5 µM values by entry
- Tested on: amastigote forms of T. cruzi CL Brener strain
- PROTOCOL: Anti-trypanosomal activity assay (beta-galactosidase reporter, infected LLC-MK2 cells)
- Assay type: cell-based
- EXPERIMENTAL_CONTEXT: Trypanosoma cruzi, LLC-MK2; 0.5 μM; standard deviation (N = 6) in parentheses; read-out: %activity at 0.5 μM
Field format: number, assumed %, no unit text.

Sample answers from the record:
N#CCNC(=O)[C@@H]1CCCC[C@H]1C(=O)N1CCCCC1: 2
CC(C)(F)C[C@H](N[C@@H](c1ccc(-c2ccc(S(C)(=O)=O)cc2)cc1)C(F)(F)F)C(=O)NC1(C#N)CC1: 28
Cc1nn(C)c2cc(N3CCN(C(=O)[C@@H]4CCCC[C@H]4C(=O)NC4(C#N)CC4)[C@H](C)C3)ccc12: 40

Problem: Sample N#CCNC(=O)[C@@H]1CCCC[C@H]1C(=O)N1CCN(c2ccccc2)CC1 — what was its inhibition at 0.5 µM?
Result: 7

Problem: Sample O=C(Cn1ccnc1[N+](=O)[O-])NCc1ccccc1 — what was its inhibition at 0.5 µM?
Result: 7

Problem: Sample COc1cc(N2CCN(C(=O)[C@@H]3CCCC[C@H]3C(=O)NC3(C#N)CC3)[C@H](C)C2)ccc1C1CC1 — what was its inhibition at 0.5 µM?
Result: 62

Problem: Sample CS(=O)(=O)c1ccc(N2CCN(C(=O)[C@@H]3CCCC[C@H]3C(=O)NC3(C#N)CC3)CC2)cc1 — what was its inhibition at 0.5 µM?
Result: 15

Problem: Sample N#CC1(NC(=O)[C@H](Cc2ccccc2)N[C@H](c2ccccc2)C(F)(F)F)CC1 — what was its inhibition at 0.5 µM?
Result: 55

----------
IC50 values by entry
- TESTED_ON: human Cat L (Homo sapiens, UniProt P07711)
- Construct: made in house
- Sequence (P07711 114-333): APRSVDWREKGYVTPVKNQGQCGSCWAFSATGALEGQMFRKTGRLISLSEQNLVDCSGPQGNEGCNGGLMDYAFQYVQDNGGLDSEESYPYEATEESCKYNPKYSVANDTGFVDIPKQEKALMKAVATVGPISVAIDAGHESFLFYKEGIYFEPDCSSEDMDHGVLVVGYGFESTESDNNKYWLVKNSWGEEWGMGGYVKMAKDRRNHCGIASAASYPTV
- PROTOCOL: Cat L inhibition assay (QFRET, Z-Phe-Arg-AMC cleavage)
- Format: biochemical
- EXPERIMENTAL_CONTEXT: pIC50 = -log10(IC50/M); determined using the Cat L inhibition assay method of ref. 24; pH 6.4; read-out: Cathepsin L pIC50 (converted)
- Experimental: Enzyme kinetic assays for cathepsin L were performed in a similar manner to the cruzain assays at 37°C in 200 μL of a solution containing 100 mM acetate buffer pH 5.5, 300 mM NaCl, 1 mM dithiothreitol (DTT), 1 mM EDTA, 5% v/v dimethyl sulfoxide (DMSO), 0.01% v/v Triton X-100 and 0.30 nM cathepsin L, using Corning® 96-well black flat bottom microplates. […]

CS(=O)(=O)c1ccc(N2CCN(C(=O)[C@@H]3CCCC[C@H]3C(=O)NC3(C#N)CC3)CC2)cc1 [Compound 9]: > 10 µM
COc1cc(N2CCN(C(=O)[C@@H]3CCCC[C@H]3C(=O)NC3(C#N)CC3)[C@H](C)C2)ccc1C1CC1 [Compound 11]: > 10 µM
COc1ccc(N2CCN(C(=O)[C@@H]3CCCC[C@H]3C(=O)NC3(C#N)CC3)[C@H](C)C2)cc1OC [Compound 10]: > 10 µM

Problem: Sample Cc1nn(C)c2cc(N3CCN(C(=O)[C@@H]4CCCC[C@H]4C(=O)NC4(C#N)CC4)[C@H](C)C3)ccc12 [Compound 12] — what was its IC50?
Result: > 10 µM

----------
EC50 values by entry
- Tested on: amastigote forms of T. cruzi CL Brener strain
- PROTOCOL: Anti-trypanosomal activity assay (beta-galactosidase reporter, infected LLC-MK2 cells)
- Assay type: cell-based
- EXPERIMENTAL_CONTEXT: Trypanosoma cruzi, 120 h; pEC50 = -log10(EC50/M); T. cruzi CL Brener amastigotes in LLC-MK2 cells, 5 days; read-out: pEC50 (anti-trypanosomal activity) (converted)
Field format: number, assumed nM, no unit text.

Sample answers from the record:
CC(C)(F)C[C@H](N[C@@H](c1ccc(-c2ccc(S(C)(=O)=O)cc2)cc1)C(F)(F)F)C(=O)NC1(C#N)CC1: 2510
O=C(Cn1ccnc1[N+](=O)[O-])NCc1ccccc1: 2510
COc1cc(N2CCN(C(=O)[C@@H]3CCCC[C@H]3C(=O)NC3(C#N)CC3)[C@H](C)C2)ccc1C1CC1: 251
Cc1nn(C)c2cc(N3CCN(C(=O)[C@@H]4CCCC[C@H]4C(=O)NC4(C#N)CC4)[C@H](C)C3)ccc12: 1260

Next, consider the following compound.
Problem: Sample N#CC1(NC(=O)[C@H](Cc2ccccc2)N[C@H](c2ccccc2)C(F)(F)F)CC1 — what was its EC50?
Result: 126

----------
Cytotox LLC-MK2 values by entry
- System: LLC-MK2 cells
- PROTOCOL: Cytotoxicity in LLC-MK2 cells
- Type: cell-based, monkey
- EXPERIMENTAL_CONTEXT: % cytotoxicity in LLC-MK2 cells at 128 μM; standard deviation (N = 6) in parentheses

Sample answers from the record:
COc1cc(N2CCN(C(=O)[C@@H]3CCCC[C@H]3C(=O)NC3(C#N)CC3)[C@H](C)C2)ccc1C1CC1: 36 (7) %
CC(C)(F)C[C@H](N[C@@H](c1ccc(-c2ccc(S(C)(=O)=O)cc2)cc1)C(F)(F)F)C(=O)NC1(C#N)CC1: 31 (4) %
N#CC1(NC(=O)[C@H](Cc2ccccc2)N[C@H](c2ccccc2)C(F)(F)F)CC1: 0 (0) %
Cc1nn(C)c2cc(N3CCN(C(=O)[C@@H]4CCCC[C@H]4C(=O)NC4(C#N)CC4)[C@H](C)C3)ccc12: 8 (2) %
O=C(Cn1ccnc1[N+](=O)[O-])NCc1ccccc1: 41 (8) %

Problem: Sample CS(=O)(=O)c1ccc(N2CCN(C(=O)[C@@H]3CCCC[C@H]3C(=O)NC3(C#N)CC3)CC2)cc1 — what was its Cytotox LLC-MK2?
Result: 0 (0) %

Problem: Sample COc1ccc(N2CCN(C(=O)[C@@H]3CCCC[C@H]3C(=O)NC3(C#N)CC3)[C@H](C)C2)cc1OC — what was its Cytotox LLC-MK2?
Result: 15(3) %

Problem: Sample N#CCNC(=O)[C@@H]1CCCC[C@H]1C(=O)N1CCN(c2ccccc2)CC1 — what was its Cytotox LLC-MK2?
Result: 29 (8) %

Problem: Sample N#CCNC(=O)[C@@H]1CCCC[C@H]1C(=O)N1CCCCC1 — what was its Cytotox LLC-MK2?
Result: 4 (3) %
